Target: Vitamin D3 receptor (Rattus norvegicus, UniProt P13053)
Sequence (P13053 whole entry): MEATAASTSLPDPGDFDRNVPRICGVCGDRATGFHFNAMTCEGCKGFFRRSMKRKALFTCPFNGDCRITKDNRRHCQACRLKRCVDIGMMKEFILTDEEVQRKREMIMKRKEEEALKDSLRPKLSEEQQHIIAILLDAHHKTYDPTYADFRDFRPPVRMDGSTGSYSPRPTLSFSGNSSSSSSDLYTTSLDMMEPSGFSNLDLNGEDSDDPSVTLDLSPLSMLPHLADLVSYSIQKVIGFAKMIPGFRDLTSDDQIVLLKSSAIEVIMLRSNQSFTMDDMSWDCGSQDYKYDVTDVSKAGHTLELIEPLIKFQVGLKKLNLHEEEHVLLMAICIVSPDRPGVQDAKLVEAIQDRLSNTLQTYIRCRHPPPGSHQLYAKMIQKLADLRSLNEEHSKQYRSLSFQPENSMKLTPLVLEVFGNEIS
Test: Displacement of [3H]1-alpha,25-(OH)2D3 from rat recombinant full length VDR
pKi: −log10 of the molar value.
Reported metric: pKi

structure_notation=C=C1[C@H](O)CC(=C/C=C/C/C(C)=C/[C@@H](C)CCCC(C)(C)O)C[C@H]1O reported_metric=pKi limit_qualifier== experimental_result=7.22
structure_notation=C=C1[C@H](O)CC(=C/C=C/CCC[C@@H](C)CCCC(C)(C)O)C[C@H]1O reported_metric=pKi limit_qualifier== experimental_result=7.30
structure_notation=C=C1[C@H](O)CC(=C/C=C/C[C@@H](C)C[C@@H](C)CCCC(C)(C)O)C[C@H]1O reported_metric=pKi limit_qualifier== experimental_result=8.00
structure_notation=C=C1[C@H](O)CC(=C/C=C/C[C@H](C)C[C@@H](C)CCCC(C)(C)O)C[C@H]1O reported_metric=pKi limit_qualifier== experimental_result=7.52
structure_notation=C=C1[C@H](O)CC(=C/C=C\C/C(C)=C/[C@@H](C)CCCC(C)(C)O)C[C@H]1O reported_metric=pKi limit_qualifier=< experimental_result=6.00
